Reported values of log10 IC50 for individual entries
- target entity: human TLR9 (Homo sapiens (Human), UniProt Q9NR96)
- Sequence (Q9NR96 26-1032): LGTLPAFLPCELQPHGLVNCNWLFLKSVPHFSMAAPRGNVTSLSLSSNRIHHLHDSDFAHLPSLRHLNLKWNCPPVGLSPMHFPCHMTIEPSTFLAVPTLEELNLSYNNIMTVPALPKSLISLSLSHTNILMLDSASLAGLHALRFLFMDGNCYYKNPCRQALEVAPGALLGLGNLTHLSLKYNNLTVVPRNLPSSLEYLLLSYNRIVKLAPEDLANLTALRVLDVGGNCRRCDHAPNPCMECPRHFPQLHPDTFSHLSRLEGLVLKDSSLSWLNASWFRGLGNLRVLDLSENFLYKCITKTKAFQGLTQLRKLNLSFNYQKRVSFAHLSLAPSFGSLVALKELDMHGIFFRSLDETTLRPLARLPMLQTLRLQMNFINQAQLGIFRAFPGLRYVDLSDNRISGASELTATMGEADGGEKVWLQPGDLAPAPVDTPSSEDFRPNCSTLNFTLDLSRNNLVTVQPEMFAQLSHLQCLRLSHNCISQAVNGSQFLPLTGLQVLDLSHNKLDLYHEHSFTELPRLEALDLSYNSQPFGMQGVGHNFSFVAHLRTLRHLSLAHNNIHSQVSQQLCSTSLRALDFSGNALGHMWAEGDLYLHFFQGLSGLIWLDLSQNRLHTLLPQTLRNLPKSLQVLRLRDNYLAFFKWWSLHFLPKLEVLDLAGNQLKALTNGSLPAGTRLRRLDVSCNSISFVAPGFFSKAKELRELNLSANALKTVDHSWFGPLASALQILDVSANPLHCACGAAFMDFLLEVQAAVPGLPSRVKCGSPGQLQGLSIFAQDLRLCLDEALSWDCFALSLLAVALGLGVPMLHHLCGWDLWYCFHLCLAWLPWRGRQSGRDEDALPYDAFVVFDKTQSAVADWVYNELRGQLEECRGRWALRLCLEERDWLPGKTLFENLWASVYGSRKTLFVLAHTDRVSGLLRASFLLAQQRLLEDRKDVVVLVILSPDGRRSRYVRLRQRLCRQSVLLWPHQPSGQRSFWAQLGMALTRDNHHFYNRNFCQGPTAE
- assay text: TLR9 inhibition reporter assay (HEK-Blue SEAP);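 further: SEAP driven by IFN-β minimal promoter carrying five NF-κB and AP-1 sites, 22 h at 37 °C, compounds 0.05 nM–50 µM, inhibition scaled between agonist-plus-DMSO and reference-inhibitor wells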
- recorded conditions: read-out: TLR9 IC50; HEK-Blue cells overexpressing human TLR9; ODN2006 5 nM stimulation; SEAP reporter
readout type: log10 IC50 (log10 of the value in µM)

[
  {
    "compound": "Cc1c(-c2[nH]c3cnc(C4CCC(NC5CCOCC5)CC4)c(F)c3c2C(C)C)cn2ncnc2c1C (stereo not shown)",
    "target entity": "human TLR9 (Homo sapiens (Human), UniProt Q9NR96)",
    "log10 IC50": 0.65
  },
  {
    "compound": "CNC(=O)CN(C)C1CCN(c2ncc3[nH]c(-c4cc(OC)c5ncnn5c4)c(C(C)C)c3c2F)CC1",
    "target entity": "human TLR9 (Homo sapiens (Human), UniProt Q9NR96)",
    "log10 IC50": 0.41
  },
  {
    "compound": "COc1cc(-c2[nH]c3cnc(N4CCC(N(C)CC(N)=O)CC4)c(F)c3c2C(C)C)cn2ncnc12",
    "target entity": "human TLR9 (Homo sapiens (Human), UniProt Q9NR96)",
    "log10 IC50": 0.76
  },
  {
    "compound": "Cc1c(-c2[nH]c3cnc(N4CCN(C5COC5)C[C@H]4C)c(F)c3c2C(C)C)cn2ncnc2c1C",
    "target entity": "human TLR9 (Homo sapiens (Human), UniProt Q9NR96)",
    "log10 IC50": 1.34
  },
  {
    "compound": "Cc1c(-c2[nH]c3cnc(N4CCN(CC(=O)N(C)C)C[C@H]4C)c(F)c3c2C(C)C)cn2ncnc2c1C",
    "target entity": "human TLR9 (Homo sapiens (Human), UniProt Q9NR96)",
    "log10 IC50": 1.68
  },
  {
    "compound": "Cc1c(-c2[nH]c3cnc(N4CCN(C(=O)CN(C)C)C[C@H]4C)c(F)c3c2C(C)C)cn2ncnc2c1C",
    "target entity": "human TLR9 (Homo sapiens (Human), UniProt Q9NR96)",
    "log10 IC50": 1.19
  }
]

###

- target entity: human TLR7 (Homo sapiens (Human), UniProt Q9NYK1)
- Sequence (Q9NYK1 27-1049): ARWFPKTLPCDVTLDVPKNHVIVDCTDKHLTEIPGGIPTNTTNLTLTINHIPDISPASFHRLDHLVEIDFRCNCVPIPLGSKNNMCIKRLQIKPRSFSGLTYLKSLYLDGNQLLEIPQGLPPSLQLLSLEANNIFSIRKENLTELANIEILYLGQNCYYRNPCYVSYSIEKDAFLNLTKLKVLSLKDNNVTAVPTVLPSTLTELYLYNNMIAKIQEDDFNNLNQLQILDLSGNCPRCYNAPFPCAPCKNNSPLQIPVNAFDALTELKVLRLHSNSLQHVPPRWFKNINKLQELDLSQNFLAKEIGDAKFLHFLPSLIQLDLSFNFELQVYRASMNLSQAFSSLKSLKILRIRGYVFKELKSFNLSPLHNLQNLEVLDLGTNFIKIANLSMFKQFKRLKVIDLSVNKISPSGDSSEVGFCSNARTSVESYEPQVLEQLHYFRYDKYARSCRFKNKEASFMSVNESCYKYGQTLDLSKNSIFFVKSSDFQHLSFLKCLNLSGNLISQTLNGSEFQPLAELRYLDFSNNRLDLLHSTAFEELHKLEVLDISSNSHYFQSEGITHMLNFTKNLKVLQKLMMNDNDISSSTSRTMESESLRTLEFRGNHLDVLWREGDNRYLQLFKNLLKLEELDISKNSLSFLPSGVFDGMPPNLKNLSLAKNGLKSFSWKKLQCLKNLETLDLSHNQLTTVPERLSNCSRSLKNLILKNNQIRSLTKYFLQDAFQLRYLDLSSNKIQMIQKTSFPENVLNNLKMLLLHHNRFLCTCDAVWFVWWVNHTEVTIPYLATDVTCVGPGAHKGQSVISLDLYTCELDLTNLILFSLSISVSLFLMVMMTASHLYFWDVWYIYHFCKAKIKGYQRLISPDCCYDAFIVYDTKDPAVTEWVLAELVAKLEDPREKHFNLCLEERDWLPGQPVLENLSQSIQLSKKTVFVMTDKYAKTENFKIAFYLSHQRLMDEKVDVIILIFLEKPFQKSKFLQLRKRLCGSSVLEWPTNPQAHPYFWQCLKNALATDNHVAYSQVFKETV
- assay text: TLR7 inhibition reporter assay (HEK-Blue SEAP)
- recorded conditions: HEK-Blue cells overexpressing human TLR7, gardiquimod 7.5 μM stimulation

[
  {
    "molecule": "Cc1c(-c2[nH]c3cnc(N4CC5(CN(CCS(C)(=O)=O)C5)C4)c(F)c3c2C(C)C)cn2ncnc2c1C",
    "IC50, nM": 99
  },
  {
    "molecule": "COc1cc(-c2[nH]c3cnc(N4CC5(C4)CN(C4CCC4)C5)c(F)c3c2C(C)C)cn2ncnc12",
    "IC50, nM": 9.9
  },
  {
    "molecule": "Cc1c(N2CCC(N3CC4(COC4)C3)CC2)ncc2[nH]c(-c3cc(C)c4ncnn4c3)c(C(C)C)c12",
    "IC50, nM": 0.5
  },
  {
    "molecule": "Cc1c(-c2[nH]c3cnc(C4CCC(NCC(F)F)CC4)cc3c2C(C)C)cn2ncnc2c1C (stereo not drawn) [Example 350]",
    "IC50, nM": 1.4
  },
  {
    "molecule": "COc1cc(-c2[nH]c3cnc(C4CCN(CCS(C)(=O)=O)CC4)c(F)c3c2C(C)C)cn2ncnc12",
    "IC50, nM": 3.9
  },
  {
    "molecule": "Cc1cc(-c2[nH]c3cnc(C4CCN(C5CCOCC5)CC4)c(F)c3c2C(C)C)cn2ncnc12",
    "IC50, nM": 2.1
  },
  {
    "molecule": "Cc1c(N2CCC(NC(C)C)CC2)ncc2[nH]c(-c3cc(C)c4ncnn4c3)c(C(C)C)c12",
    "IC50, nM": 0.66
  },
  {
    "molecule": "Cc1cc(-c2[nH]c3cnc(C4CCC(NC5(C)COC5)CC4)c(F)c3c2C(C)C)cn2ncnc12 (stereo not drawn) [Example 81]",
    "IC50, nM": 0.15
  },
  {
    "molecule": "CCN(C)C1CCC(c2ncc3[nH]c(-c4cc(OC)c5ncnn5c4)c(C(C)C)c3c2C)CC1 (stereo not drawn) [Example 268]",
    "IC50, nM": 4.8
  },
  {
    "molecule": "COc1cc(-c2[nH]c3cnc(N4CCC(NCC(C)(C)C)CC4)c(C)c3c2C(C)C)cn2ncnc12",
    "IC50, nM": 0.36
  },
  {
    "molecule": "COc1cc(-c2[nH]c3cnc(N4CCC(N(C)C5COC5)CC4)c(F)c3c2C(C)C)cn2ncnc12",
    "IC50, nM": 3.6
  },
  {
    "molecule": "CNC1CCN(c2ncc3[nH]c(-c4cc(OC)c5ncnn5c4)c(C(C)C)c3c2F)CC1",
    "IC50, nM": 0.91
  },
  {
    "molecule": "COc1cc(-c2[nH]c3cnc(C4CCC(NCC(C)(C)OC)C4)cc3c2C(C)C)cn2ncnc12 (stereo not drawn) [Example 96]",
    "IC50, nM": 24
  },
  {
    "molecule": "Cc1c(-c2[nH]c3cnc(N4CCN(C(=O)CN5CCOCC5)CC4)c(F)c3c2C(C)C)cn2ncnc2c1C",
    "IC50, nM": 16
  },
  {
    "molecule": "Cc1c(-c2[nH]c3cnc(C4CCC(NC[C@@H](F)C(C)(C)O)CC4)c(F)c3c2C(C)C)cn2ncnc2c1C (stereo partly drawn) [Example 240]",
    "IC50, nM": 0.96
  }
]
